Consider the following compounds; for each one, report its % Importing cells.
# Tested on: GM16513 cells
# METHOD_NOTES: Catalase import immunofluorescence, high-content screening (% importing cells)
# Type: cell-based, human
# STUDY_CONDITIONS: GM16513 cells, 1.3 µM, 3 days
Answers are plain numbers, in %.

Here is how some compounds turned out for % Importing cells.
{"columns": ["COMPOUND", "RESULT_UNITS", "RECORDED_NUMBER"],
 "data": [
  ["CC(=O)N[C@@H](CCCCN)C(=O)Nc1ccc2c(C)cc(=O)oc2c1", "%", 18],
  ["O=C(NO)c1cccc(C(=O)NCCc2ccccc2)c1", "%", 19],
  ["CC(C)(CNC(=O)c1cccc(-c2noc(C(F)(F)F)n2)c1)c1coc(-c2ccccc2)n1", "%", 13],
  ["CCOC(=O)NCCCC(=O)NCCc1ccccc1 [Santacruzamate A]", "%", 24]
]}

Query: Dear colleague, I am looking for the recorded % Importing cells of the following compound: O=C(NO)C(c1ccc(-c2ncc(C(F)(F)F)cn2)cc1)c1ccccc1F (centres unmarked)
Response: 10

---

# Tested on: PEX304
# METHOD_NOTES: Catalase import immunofluorescence (% importing cells)
# Format: cell-based, human
# STUDY_CONDITIONS: PEX304 (PEX1), at the lower dose leading to the maximum effect (see E14)
Where a name gives a salt, the structure may show the parent alone.
TEST_READOUT: Importing cells (%)
Answers are plain numbers, in %.

As a guide, the following entries are already answered.
{"columns": ["COMPOUND", "Importing cells (%)"],
 "data": [
  ["CCN(CC)Cc1ccc2cc(COC(=O)Nc3ccc(C(=O)NO)cc3)ccc2c1 [Givinostat (hydrochloride monohydrate), Givinostat]", 5],
  ["O=C(CCCCCCC(=O)Nc1ccccc1)NO", 8],
  ["O=C(CCCCCCNC(=O)c1cnc(N(c2ccccc2)c2ccccc2)nc1)NO", 5]
]}

As a next step, examine the compound that follows.
Query: Fill in the blank: the reported Importing cells (%) of O=C(/C=C/c1cccc(S(=O)(=O)Nc2ccccc2)c1)NO is ____.
Response: 11

---

# System: PEX405 cells
# Format: cell-based
# STUDY_CONDITIONS: 1.3 µM, 3 days, PI positive cells (dead cells)
TEST_READOUT: % PI+ cells (%)
Answers are plain numbers, in %.

Known % PI+ cells results, listed for orientation:
{"columns": ["COMPOUND", "RECORDED_NUMBER"],
 "data": [
  ["CC(=O)Nc1ccc(C(=O)Nc2cc(-c3cccs3)ccc2N)cc1", 1],
  ["COc1ccc(-c2nc(N3CCOCC3)c3sc(CN(C)c4ncc(C(=O)NO)cn4)cc3n2)cn1 [Fimepinostat]", 43],
  ["Cl.O=C(NO)c1ccc(Cn2cc(-c3ccc(CN4CCCC4)cc3)nn2)cc1", 9],
  ["CCOC(=O)c1cnc(NC2(c3ccccc3)CC2)nc1 [CG347B]", 1],
  ["CC(C)(C)OC(=O)Nc1ccc(-c2cc(C(=O)NCCCCCCC(=O)NO)no2)cc1", 1]
]}

Report % PI+ cells for each item below.
1. CCCCc1nc2cc(/C=C/C(=O)NO)ccc2n1CCN(CC)CC
2. Nc1ccc(-c2cccs2)cc1NC(=O)c1ccc2nc(N3CCNCC3)ccc2c1
3. O=C1CCc2c(ccc3ccccc23)O1
4. CN1CCc2c(c3ccccc3n2Cc2ccc(C(=O)NO)cc2)C1

Response:
[2, 1, 0, 1]

---

# Tested on: GM16513 cells
# Assay type: cell-based
# STUDY_CONDITIONS: 1.3 µM, 3 days, PI positive cells (dead cells)
Record form. Attribute: % PI+ cells. Fill in for each entry.
Numbers only, in %.

Please give % PI+ cells for each item listed below.
1. Cl.O=C(NO)c1ccc(Cn2cc(-c3ccc(CN4CCCC4)cc3)nn2)cc1
2. O=C(CCCCCCC(=O)Nc1cccnc1)NO [Pyroxamide]
3. CCCCN(Cc1ccc(C(=O)NO)cc1)C(=O)Nc1ccccc1
4. CN1CCc2c(c3ccccc3n2Cc2ccc(C(=O)NO)cc2)C1
5. O=C(CCCCCCNC(=O)c1cnc(N(c2ccccc2)c2ccccc2)nc1)NO
6. CC(C)(C)c1ccc(C(=O)Nc2ccc(C(=O)NO)cc2)cc1
7. Nc1ccccc1NC(=O)c1cnccn1
8. O=C(CCCCCCC(=O)Nc1ccc(CN[C@H](C(=O)OC2CCCC2)c2ccccc2)cc1)NO

Response:
[11, 1, 2, 1, 2, 2, 1, 2]

Query: What value of measured % PI+ cells is listed for O=C(CCCCCCNC(=O)c1cnc(N(c2ccccc2)c2ccccc2Cl)nc1)NO ?
Response: 1

---

# Test system: GM16513 cells
# METHOD_NOTES: Catalase import immunofluorescence, high-content screening (% importing cells)
# Format: cell-based, human
# STUDY_CONDITIONS: Homo sapiens, 72 h; GM16513 cells, dose response with 6 concentrations, 3 days; read-out: Max Efficacy (% Importing cells)
Counter-ions that a name gives are not always drawn.
Please respond with reported Emax for every item in the list.
Give bare numbers, in %.

{"columns": ["MOLECULE", "Emax [%]"],
 "data": [
  ["O=C(NO)c1cnc(N2C[C@@H]3[C@H](C2)[C@H]3NCc2ccc3cc(F)ccc3n2)nc1 [Nanatinostat]", 93],
  ["CCN(CC)Cc1ccc2cc(COC(=O)Nc3ccc(C(=O)NO)cc3)ccc2c1 [Givinostat (hydrochloride monohydrate), Givinostat]", 80],
  ["O=C(CCCCCCC(=O)Nc1ccccc1)NO [Vorinostat]", 90],
  ["Nc1ccccc1NC(=O)c1ccc(CNc2nccc(-c3cccnc3)n2)cc1 [Mocetinostat]", 50],
  ["COc1ccc(-c2nc(N3CCOCC3)c3sc(CN(C)c4ncc(C(=O)NO)cn4)cc3n2)cn1 [Fimepinostat]", 92.5],
  ["CN(C)Cc1ccc(S(=O)(=O)n2ccc(/C=C/C(=O)NO)c2)cc1 [Resminostat (hydrochloride), Resminostat]", 86],
  ["Cn1cc(-c2ccc(S(=O)(=O)n3ccc(/C=C/C(=O)Nc4ccccc4N)c3)cc2)cn1 [Domatinostat]", 33]
]}

Query: Bench note: what Emax did Cn1cc(CNCC2CCN(c3ncc(C(=O)NO)cn3)CC2)c2ccccc21 [Quisinostat] show?
Response: 95

---

# Tested on: GM16513 cells
# METHOD_NOTES: Catalase import immunofluorescence, high-content screening (% importing cells)
# Assay type: cell-based, human
# STUDY_CONDITIONS: Homo sapiens, 72 h; GM16513 cells, dose response with 6 concentrations, 3 days; read-out: Max Efficacy (% Importing cells)
Assignment: determine reported Emax for the given compounds.
Kindly write the number and append the unit.

# example entries with known answers
{"columns": ["MOL_SMILES", "RESULT"],
 "data": [
  ["Cc1[nH]c2ccccc2c1CCNCc1ccc(/C=C/C(=O)NO)cc1", "93%"],
  ["CCCCc1nc2cc(/C=C/C(=O)NO)ccc2n1CCN(CC)CC", "93%"],
  ["O=C(/C=C/c1cccc(S(=O)(=O)Nc2ccccc2)c1)NO", "98%"]
]}

Next item in the queue.
Query: Which Emax reading was recorded for the compound O=C(CCCCCCNC(=O)c1cnc(N(c2ccccc2)c2ccccc2Cl)nc1)NO ?
Response: 93%

---

# System: GM16513 cells
# METHOD_NOTES: Catalase import immunofluorescence, high-content screening (% importing cells)
# Type: cell-based, human
# STUDY_CONDITIONS: GM16513 cells, 1.3 µM, 3 days
TEST_READOUT: % Importing cells (%)
Answers are plain numbers, in %.

Below: 2 compounds and their reported % Importing cells.
{"columns": ["MOL_SMILES", "TEST_READOUT", "RECORDED_NUMBER"],
 "data": [
  ["O=C(CCCCCCNC(=O)c1cnc(N(c2ccccc2)c2ccccc2)nc1)NO", "% Importing cells", 30],
  ["Nc1ccccc1NC(=O)c1cnccn1", "% Importing cells", 15]
]}

Dear reader, for each entry below, please note its % Importing cells.
1. Cl.O=C(NO)c1ccc(Cn2cc(-c3ccc(CN4CCCC4)cc3)nn2)cc1
2. O=C(NO)c1ccc(CN(c2cnccn2)c2cnccn2)cc1

Response:
84
17

---

# Tested on: GM16513 cells
# Assay type: cell-based
# STUDY_CONDITIONS: 1.3 µM, 3 days, PI positive cells (dead cells)
Structures can show the parent of a compound that is named as a salt.
TEST_READOUT: % PI+ cells (%)
Numbers only, in %.

{"columns": ["COMPOUND", "% PI+ cells / %"],
 "data": [
  ["O=C(/C=C/c1cccc(S(=O)(=O)Nc2ccccc2)c1)NO [Belinostat]", 4],
  ["CC(=O)Nc1ccc(C(=O)Nc2ccc(F)cc2N)cc1 [BRD3308]", 2],
  ["O=C(NO)c1ccc(CNC(=O)c2[nH]c(-c3ccc(O)cc3)cc2-c2ccoc2)cc1.O=C(O)C(F)(F)F [QTX125 (TFA)]", 11],
  ["CC1(C)c2cccc(C(=O)NO)c2CN1c1cnc(C(F)(F)F)cn1 [FT895]", 1]
]}

Please give % PI+ cells, item by item, for the list that follows.
1. O=C(NO)c1cccc2ccccc12 [1-Naphthohydroxamic acid]
2. Cn1c(CCCCCCC(=O)NO)nc2cc(N(CCCl)CCCl)ccc21 [EDO-S101]

Response:
1
2

Please report % PI+ cells for every entry that follows.
1. Nc1ccccc1NC(=O)c1ccc(CNc2nccc(-c3cccnc3)n2)cc1 [Mocetinostat]
2. COc1ccc(Cn2ccc3ccc(C(=O)NO)cc32)cc1 [PCI-34051]
3. Cc1ccc(C(=O)NCCCCCC(=O)Nc2ccccc2N)cc1 [RG2833]
4. Nc1ccccc1NC(=O)c1ccc(Cn2cc(-c3ccc(C(=O)NCc4cccnc4)cc3)nn2)cc1 [Nampt-IN-3]

Response:
4
1
1
3

List reported % PI+ cells for each of these compounds:
1. CCCCNNC(=O)c1ccc(Br)cc1 [UF010]
2. Nc1cc(F)ccc1NC(=O)c1ccc(CNC(=O)/C=C/c2cccnc2)cc1 [Tucidinostat]
3. O=C(CCc1ccc(CN[C@H](C(=O)OC2CCCC2)C2CCCCC2)cn1)NO [HDAC-IN-3]
4. O=C(NO)c1cnc(N2C[C@@H]3[C@H](C2)[C@H]3NCc2ccc3cc(F)ccc3n2)nc1 [Nanatinostat]

Response:
1. 1
2. 1
3. 3
4. 12

Provide each entry's % PI+ cells from the list below.
1. Cc1nn(C)cc1CN1CCC(c2ccc(C(=O)Nc3ccccc3N)cc2)CC1 [CXD101]
2. COc1ccc(-c2nc(N3CCOCC3)c3sc(CN(C)c4ncc(C(=O)NO)cn4)cc3n2)cn1 [Fimepinostat]
3. Nc1ccccc1NC(=O)c1ccc(CNC(=O)OCc2cccnc2)cc1 [Entinostat]

Response:
1: 2; 2: 25; 3: 2

The following compounds each have a reported value; give each one's % PI+ cells.
1. CC(=O)N[C@@H](CCCCN)C(=O)Nc1ccc2c(C)cc(=O)oc2c1 [Ac-Lys-AMC]
2. CN(C)Cc1ccc(S(=O)(=O)n2ccc(/C=C/C(=O)NO)c2)cc1 [Resminostat (hydrochloride), Resminostat]
3. CC(/C=C/C(=O)NO)=C\[C@@H](C)C(=O)c1ccc(N(C)C)cc1 [Trichostatin A]
4. Cc1[nH]c2ccccc2c1CCNCc1ccc(/C=C/C(=O)NO)cc1 [Panobinostat]
5. O=C(NO)c1cnc(NC2(c3ccccc3)CC2)nc1 [ACY-738]

Response:
1: 1; 2: 2; 3: 18; 4: 30; 5: 1

Working through the 4 compounds below one at a time, give % PI+ cells for each.
1. O=C(NO)c1ccc(CN(c2cnccn2)c2cnccn2)cc1 [KA2507]
2. CC(=O)Nc1ccc(C(=O)Nc2ccccc2N)cc1 [Tacedinaline]
3. CC(=O)Nc1ccc(C(=O)Nc2cc(-c3cccs3)ccc2N)cc1 [BRD-6929]
4. CCN1CCN(C(c2cccnc2)c2cc(Cl)c3cccnc3c2O)CC1 (stereo not drawn) [BRD 4354]

Response:
1: 1; 2: 1; 3: 1; 4: 1

Query: Request the reported % PI+ cells associated with Cc1cc(C)cc(C(=O)NOCCCCCC(=O)NO)c1 [LMK-235]
Response: 2
